assayed target: cyno MSLN (Macaca fascicularis)
procedure text: BLI (Octet), bsAb in 1+1 Fab-scFv-Fc format
observed property: Kd (nM)

- XENP32570 (bispecific antibody, part only; not given: anti-CD3 scFv-Fc arm, constant regions, V domains shown, not shown: another chain or arm of the molecule; a dimerising Fc or GST; small tags and cut ends) VH: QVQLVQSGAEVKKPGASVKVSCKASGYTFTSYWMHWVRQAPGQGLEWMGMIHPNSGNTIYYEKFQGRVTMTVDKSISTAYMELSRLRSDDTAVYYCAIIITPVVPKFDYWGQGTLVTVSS VL: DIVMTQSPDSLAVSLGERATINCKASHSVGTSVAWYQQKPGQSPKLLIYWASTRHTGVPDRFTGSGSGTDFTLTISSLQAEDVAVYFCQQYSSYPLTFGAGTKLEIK: 0.155
- XENP32565 (bispecific antibody, part only; not given: anti-CD3 scFv-Fc arm, constant regions, V domains shown, not shown: another chain or arm of the molecule; a dimerising Fc or GST; small tags and cut ends) VH: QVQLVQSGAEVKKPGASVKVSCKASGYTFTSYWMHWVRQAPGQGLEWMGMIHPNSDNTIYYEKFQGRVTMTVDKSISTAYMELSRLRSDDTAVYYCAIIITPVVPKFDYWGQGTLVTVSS VL: DIVMTQSPDSLAVSLGERATINCKASHDVGTSVAWYQQKPGQSPKLLIYWASTRETGVPDRFTGSGSGTDFTLTISSLQAEDVAVYFCQQYSSYPLTFGAGTKLEIK: 0.255
- XENP32555 (bispecific antibody, part only; not given: anti-CD3 scFv-Fc arm, constant regions, V domains shown, not shown: another chain or arm of the molecule; a dimerising Fc or GST; small tags and cut ends) VH: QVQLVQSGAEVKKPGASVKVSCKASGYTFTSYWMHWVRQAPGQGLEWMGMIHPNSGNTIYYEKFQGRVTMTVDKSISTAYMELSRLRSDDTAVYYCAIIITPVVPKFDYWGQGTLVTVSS VL: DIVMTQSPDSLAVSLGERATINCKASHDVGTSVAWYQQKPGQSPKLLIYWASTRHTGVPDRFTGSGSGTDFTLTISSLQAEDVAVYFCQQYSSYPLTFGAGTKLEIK: 0.603
